Attribution: the supplement of paper PMC9112550

Tested on: Escherichia coli TOP10
Assay: shrunken log2 fold change of peptide-encoding DNA abundance (4.5 h post-induction vs induction); higher = less antimicrobial activity (less host growth inhibition)
Conditions: time post-induction: 4.5 h; library: site-saturation at positions 5, 18, 19, 20
quantity-kind: shrunken log2 fold change
Please respond with just the number, no unit label.

Name the recorded shrunken log2 fold change for `RRIRMRPPRLPRPRPRPWHIPRP` . -0.0015

Give the measured shrunken log2 fold change of `RRIRTRPPRLPRPRPRPKYHPRP` . -0.243

// query shrunken log2 fold change value for entry `RRIRRRPPRLPRPRPRPAMIPRP` 0.0243

Which measured shrunken log2 fold change value corresponds to `RRIRWRPPRLPRPRPRPMCMPRP` ? 0.0952

Endpoint output: shrunken log2 fold change of `RRIRQRPPRLPRPRPRPRCMPRP` . Value? -0.164

Dear colleague, I am looking for the recorded shrunken log2 fold change of the following sequence: `RRIRMRPPRLPRPRPRPTWTPRP` 0.667

Field request: shrunken log2 fold change | item: `RRIRSRPPRLPRPRPRPFFIPRP` -0.547

Give its shrunken log2 fold change value. Item: `RRIRGRPPRLPRPRPRPNATPRP` 3.1

* * *

System: Escherichia coli TOP10;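 also: peptides expressed intracellularly from a pBAD plasmid library in pooled LB shake-flask culture, induced with 0.3% L-arabinose, DNA abundance read by NGS, three biological replicates, DESeq2 with apeglm shrinkage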
Assay: shrunken log2 fold change of peptide-encoding DNA abundance (4.5 h post-induction vs induction); higher = less antimicrobial activity (less host growth inhibition)
Details: time post-induction: 4.5 h; library: site-saturation at positions 5, 18, 19, 20
Respond with label 1 for shrunken log2 fold change values of 0.009 and above, label 0 for values below.

Textbook exercise: given the entry `RRIRHRPPRLPRPRPRPCCHPRP` , state whether its shrunken log2 fold change is greater than or equal to 0.009. label 0

Could you tell me if the measured shrunken log2 fold change of `RRIRHRPPRLPRPRPRPSTCPRP` reaches 0.009 or more? label 0

Please indicate if the recorded shrunken log2 fold change for `RRIRYRPPRLPRPRPRPIIPPRP` meets or exceeds 0.009. label 0

Check the entry `RRIRERPPRLPRPRPRPYDCPRP` : does shrunken log2 fold change equal or exceed 0.009? label 0

In plain terms: is recorded shrunken log2 fold change at least 0.009 for `RRIRCRPPRLPRPRPRPKWNPRP` ? label 0

Could you please find out whether `RRIRLRPPRLPRPRPRPYEKPRP` has shrunken log2 fold change that meets 0.009 or exceeds it? label 0

Please check the record `RRIRPRPPRLPRPRPRPGMRPRP` and state if its shrunken log2 fold change is at or above 0.009. label 1

Form field: shrunken log2 fold change at least 0.009? Entry: `RRIRERPPRLPRPRPRPLQHPRP` label 1

// inclusive: shrunken log2 fold change at least 0.009? input: `RRIRRRPPRLPRPRPRPRFQPRP` label 1

Kindly determine if shrunken log2 fold change recorded for `RRIRMRPPRLPRPRPRPMMTPRP` is above or exactly 0.009. label 1

Quick check: does `RRIRGRPPRLPRPRPRPDLFPRP` have shrunken log2 fold change greater than or equal to 0.009? label 1

Is it the case that `RRIRCRPPRLPRPRPRPRIDPRP` has shrunken log2 fold change reaching or exceeding 0.009? label 1

# bool: shrunken log2 fold change of `RRIRFRPPRLPRPRPRPGKIPRP` >= 0.009 label 0

Is reported shrunken log2 fold change greater than or equal to 0.009 here: `RRIRHRPPRLPRPRPRPMMFPRP` label 0

Textbook exercise: given the entry `RRIRCRPPRLPRPRPRPRQRPRP` , state whether its shrunken log2 fold change is greater than or equal to 0.009. label 1

Hello, I need to know if `RRIRGRPPRLPRPRPRPALHPRP` has measured shrunken log2 fold change not below 0.009. Thanks! label 1

Is it the case that `RRIRKRPPRLPRPRPRPFGPPRP` has shrunken log2 fold change reaching or exceeding 0.009? label 1

Kindly determine if shrunken log2 fold change recorded for `RRIRSRPPRLPRPRPRPMTSPRP` is above or exactly 0.009. label 0

Assess whether reported shrunken log2 fold change for `RRIRHRPPRLPRPRPRPGLIPRP` sits at 0.009 or higher. label 0

Does the sequence `RRIRDRPPRLPRPRPRPWDCPRP` have recorded shrunken log2 fold change that is 0.009 or more? label 0

Kindly determine if shrunken log2 fold change recorded for `RRIRQRPPRLPRPRPRPCCLPRP` is above or exactly 0.009. label 0

# check: shrunken log2 fold change of `RRIRARPPRLPRPRPRPCFLPRP` is greater than or equal to 0.009 label 0

Say whether `RRIRSRPPRLPRPRPRPQDIPRP` shows shrunken log2 fold change of 0.009 or more. label 0

Given the entry `RRIRVRPPRLPRPRPRPWQRPRP` , answer whether its shrunken log2 fold change meets or surpasses 0.009. label 1

# check: shrunken log2 fold change of `RRIRGRPPRLPRPRPRPQQAPRP` is greater than or equal to 0.009 label 0

Hi team, for `RRIRDRPPRLPRPRPRPWMHPRP` , is the recorded shrunken log2 fold change at or above 0.009? label 0

Textbook exercise: given the entry `RRIRRRPPRLPRPRPRPSKTPRP` , state whether its shrunken log2 fold change is greater than or equal to 0.009. label 0

Is reported shrunken log2 fold change greater than or equal to 0.009 here: `RRIRARPPRLPRPRPRPEGEPRP` label 1

State whether the measured shrunken log2 fold change reaches 0.009, counting equality as reaching it, for `RRIRQRPPRLPRPRPRPLHYPRP` label 0

hey, is shrunken log2 fold change for this one >= 0.009? `RRIRCRPPRLPRPRPRPCMWPRP` label 0

Hi team, for `RRIRCRPPRLPRPRPRPAVHPRP` , is the recorded shrunken log2 fold change at or above 0.009? label 1

Would you say `RRIRNRPPRLPRPRPRPNHPPRP` shows shrunken log2 fold change at minimum 0.009? label 0

Kindly determine if shrunken log2 fold change recorded for `RRIRARPPRLPRPRPRPFRRPRP` is above or exactly 0.009. label 0

In plain terms: is recorded shrunken log2 fold change at least 0.009 for `RRIRIRPPRLPRPRPRPGCIPRP` ? label 0

Evaluate `RRIRRRPPRLPRPRPRPDTSPRP` : shrunken log2 fold change at minimum 0.009? label 1

hey, is shrunken log2 fold change for this one >= 0.009? `RRIRDRPPRLPRPRPRPYSPPRP` label 1

Hi, just wondering whether `RRIRERPPRLPRPRPRPWTGPRP` shows shrunken log2 fold change of 0.009 or higher. label 0

Item `RRIRMRPPRLPRPRPRPAWEPRP` with shrunken log2 fold change of 0.009 or above? label 1

Item `RRIRIRPPRLPRPRPRPMSDPRP` with shrunken log2 fold change of 0.009 or above? label 0

Tell me whether shrunken log2 fold change is at least 0.009 here: `RRIRPRPPRLPRPRPRPYPCPRP` label 0

Is it the case that `RRIRVRPPRLPRPRPRPLSSPRP` has shrunken log2 fold change reaching or exceeding 0.009? label 1

Decide: is the reported value of shrunken log2 fold change for `RRIRFRPPRLPRPRPRPGLWPRP` equal to or greater than 0.009? label 1

Form field: shrunken log2 fold change at least 0.009? Entry: `RRIRWRPPRLPRPRPRPNVMPRP` label 0

Entry `RRIRRRPPRLPRPRPRPMRSPRP` : is its shrunken log2 fold change no less than 0.009? label 1

Has `RRIRPRPPRLPRPRPRPKQCPRP` a recorded shrunken log2 fold change greater than or equal to 0.009? label 1

Confirm if shrunken log2 fold change reported for the sequence `RRIRIRPPRLPRPRPRPVFGPRP` is 0.009 or above. label 0

Is shrunken log2 fold change at least 0.009? Consider `RRIRWRPPRLPRPRPRPPNAPRP` label 1

Threshold query (shrunken log2 fold change >= 0.009) on `RRIRCRPPRLPRPRPRPAQMPRP` label 1

Hello, I need to know if `RRIRIRPPRLPRPRPRPYYNPRP` has measured shrunken log2 fold change not below 0.009. Thanks! label 0

hey, is shrunken log2 fold change for this one >= 0.009? `RRIRVRPPRLPRPRPRPPLEPRP` label 1

Does `RRIRVRPPRLPRPRPRPDLIPRP` have a reported shrunken log2 fold change of at least 0.009? label 1

Could you tell me if the measured shrunken log2 fold change of `RRIRIRPPRLPRPRPRPESDPRP` reaches 0.009 or more? label 1

Is shrunken log2 fold change for `RRIRPRPPRLPRPRPRPDGIPRP` at or above 0.009? label 1

Could you tell me if the measured shrunken log2 fold change of `RRIRGRPPRLPRPRPRPLHFPRP` reaches 0.009 or more? label 1

Exam item: decide whether the reported shrunken log2 fold change for `RRIRMRPPRLPRPRPRPAITPRP` is at least 0.009. label 1

Assess whether reported shrunken log2 fold change for `RRIRKRPPRLPRPRPRPACRPRP` sits at 0.009 or higher. label 1

Please tell me: is the sequence `RRIRCRPPRLPRPRPRPGDRPRP` at or over 0.009 in terms of shrunken log2 fold change? label 1

For this sequence, is measured shrunken log2 fold change 0.009 or higher? `RRIRLRPPRLPRPRPRPPWFPRP` label 1

Check if shrunken log2 fold change >= 0.009 (inclusive). Item: `RRIRTRPPRLPRPRPRPDCNPRP` label 1

Check the entry `RRIRLRPPRLPRPRPRPIRKPRP` : does shrunken log2 fold change equal or exceed 0.009? label 0

Kindly determine if shrunken log2 fold change recorded for `RRIRQRPPRLPRPRPRPHMVPRP` is above or exactly 0.009. label 0

State whether the measured shrunken log2 fold change reaches 0.009, counting equality as reaching it, for `RRIRYRPPRLPRPRPRPRFPPRP` label 0
